System: vancomycin resistant enterococci (VRE) E. faecalis
Assay summary: Broth microdilution MIC/MBC, VRE E. faecalis
Type: cell-based
Condition set: E. faecalis S613 HM-334; read-out: MIC
Labelling: MIC reported below 8 µM becomes y; at or above becomes n.

>>> print(df.to_string())
                                   molecule  label_class
0  O=C(O)[C@@H](Cc1ccccc1)N1C(=O)/C(=C/c2cccc(Oc3ccc(F)cc3)c2)SC1=S            n
1  O=C(O)[C@H](Cc1ccccc1)N1C(=O)/C(=C/c2cccc(-c3ccc(Cl)c(Cl)c3)c2)SC1=S            y
2  CC(=O)NC[C@H]1CN(c2ccc(N3CCOCC3)c(F)c2)C(=O)O1 [Linezolid, linezolid, reference compound]            y
3  O=C(O)[C@H](Cc1ccccc1)N1C(=O)/C(=C/c2cccc(Cc3ccc(Cl)c(Cl)c3)c2)SC1=S            y
4  O=C(O)[C@@H](Cc1ccccc1)N1C(=O)/C(=C/c2cccc(Cc3ccccc3)c2)SC1=S            n
5  O=C(O)[C@H](Cc1ccccc1)N1C(=O)/C(=C/c2cccc(-c3ccccc3)c2)SC1=S            n

Each recorded value in this set is attributed to paper PMC5053523.
